Entry source: patent US20260242478A1

biological target: Anti-CD28 Fab (SEQ ID NOs: 696, 697); assay: phage ELISA; biotinylated anti-CD28 Fab on neutravidin plate, clonal phage supernatant, anti-M13 HRP detection;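 note: crude supernatants of single phage clones picked after panning were screened for binding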
Sequence (VH, as listed by the source, chain 1 of 2): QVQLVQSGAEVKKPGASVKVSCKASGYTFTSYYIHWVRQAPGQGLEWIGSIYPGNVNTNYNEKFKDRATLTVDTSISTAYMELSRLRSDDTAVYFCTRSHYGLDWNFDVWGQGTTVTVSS
Sequence (VL, as listed by the source, chain 2 of 2): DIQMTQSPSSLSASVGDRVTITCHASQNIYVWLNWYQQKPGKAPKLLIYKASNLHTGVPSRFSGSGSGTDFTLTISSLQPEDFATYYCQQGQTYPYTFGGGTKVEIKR
MEASUREMENT_LABEL: Anti-CD28 Fab signal (phage binding ELISA)
# answer = number (no unit)

The binder identified as YCEGHSPEYMHKCL (Tested as clonal phage supernatant) [Phage-1097] registered its Anti-CD28 Fab signal (phage binding ELISA) at 1.34

response.value for YCDGHSKEYMAKCL (Tested as clonal phage supernatant) [Phage-1096] (field: Anti-CD28 Fab signal (phage binding ELISA)) = 1.34

// field: Anti-CD28 Fab signal (phage binding ELISA); key: YCDGHAPLYIQKCL (Tested as clonal phage supernatant) [Phage-1095] ; value = 1.34

Lookup result for YCAGHVDQYLWKCL (Tested as clonal phage supernatant) [Phage-1099] ; measured Anti-CD28 Fab signal (phage binding ELISA): 1.34

Just so you know, measured Anti-CD28 Fab signal (phage binding ELISA) for YCDGHSEEFMWKCL (Tested as clonal phage supernatant) [Phage-1090] came out at 1.35

Record YCEGHMEKYMEKCL (Tested as clonal phage supernatant) [Phage-1091] , field Anti-CD28 Fab signal (phage binding ELISA): 1.35

Anti-CD28 Fab signal (phage binding ELISA) reading for YCDGHLPEYMQKCL (Tested as clonal phage supernatant) [Phage-1093] : 1.35

# Anti-CD28 Fab signal (phage binding ELISA) of YCDGHMVQYMAKCL (Tested as clonal phage supernatant) [Phage-1089] = 1.36
